The values you see were collected from patent US20180346592A1.

molecular target: T1, GPC3 on the surface of hepatic cancer cell lines (SK-Hep1-GPC3 transfectant, HepG2, Huh7, Hep3B, SNU398) (human, UniProt P51654 25-554); test: FACS, HepG2 cells, 1 ug antibody; upper right panel (Synthetic library)
T1 construct: Species is not restated for the cells (hepatic cancer cell lines, or SK-Hep1 transfected with pCMV/GPC3); also called glypican 3
The following binders are listed with their measured Mean, FL2-H values.
# print the numeric value only

{"binder": "clone GS009 (scFv, V domains shown, scFv library clone tested as culture supernatant) VH: EVQLLESGGGLVQPGGSLRLSCAASGFTFSNYSMSWVRLAPGKGLEWVSVISPSGGNTYYADSVKGRFTISRDNSKNTLYLQMNSLRAEHTAVYYCARYRVKQMLNQRSYSNAMDVWGQGTLVTVSS VL: QSVLTQPPSASGTPGQRVTISCTGSSSNIGNNYVSWYQQLPGTAPKLLIYDDSQRPSGVPDRFSGSKSGTSASLAISGLRSEDEADYYCGSWDASLSGYVFGGGTKLTVLG", "Mean, FL2-H": 8.12}
{"binder": "clone GS001 (scFv, V domains shown, scFv library clone tested as culture supernatant) VH: EVQLLESGGGLVQPGGSLRLSCAASGFTFSSYSMSWVRQAPGKGLEWVSGISPSGGNKYYADSVKGRFTISRDNSKNTLYLQMNSLRAEDTAVYYCARALLGCKSAYCYYAMDVWGQGTLVTVSS VL: QSVLTQPPSASGTPGQRVTISCTGSSSNIGSNAVNWYQQLPGTAPKLLIYADSKRPSGVPDRFSGSKSGTSASLAISGLRSEDEADYYCGSWDSSLSGYVFGGGTKLTVLG", "Mean, FL2-H": 8.76}
{"binder": "clone GS008 (scFv, V domains shown, scFv library clone tested as culture supernatant) VH: EVQLLESGGGLVQPGGSLRLSCAASGFTFSNYAMSWVRQAPGKGLEWVSVISPDNGSTYYADSVKGRFTISRDNSKNTLYLQMNSLRAEDTAVYYCARARVHCRRDQCYSYGMDVWGQGTLVTVSS VL: QSVLTQPPSASGTPGQRVTISCTGSSSNIGSNNVTWYQQLPGTAPKLLIYANSQRPSGVPDRFSGSKSGTSASLAISGLRSEDEADYYCGAWDSSLNGYVFGGGTKLTVLG", "Mean, FL2-H": 8.85}

Okay, next one:
Given the binder clone GS005 (scFv, V domains shown, scFv library clone tested as culture supernatant) VH: EVQLLESGGGLVQPGGSLRLSCAASGFTFSNYAMSWVRQAPGKGLEWVSVISPDSSSKYYADSVKGRFTISRDNSKNTLYLQMNSLRAEDTAVYYCARAAVRRYGPSPYYYYAMDVWGQGTLVTVSS VL: QSVLTQPPSASGTPGQRVTISCTGSSSNIGNNYVTWYQQLPGTAPKLLIYADSHRPSGVPDRFSGSKSGTSASLAISGLRSEDEADYYCATWDYSLSGYVFGGGTKLTVLG , what is its reported Mean, FL2-H? 11
